Consider the following compounds; for each one, report its TGI.
- Test system: SR leukemia
- Assay Explanation: NCI tumour cell line growth inhibition, 48 h

Some compounds with recorded TGI:
Compound: CC1=C(C)C(=O)O[C@@H]([C@](C)(O)[C@]2(O)CC[C@@]3(O)[C@@H]4C[C@H](O)[C@]5(O)[C@@H](O)C=CC(=O)[C@]5(C)[C@H]4CC[C@]23C)C1
TGI: 84.3 µM

Compound: CCC1C(C(=O)Nc2ccccc2C)=C(C)NC(C)=C1c1ccccc1C (centres undefined)
TGI: > 76.7 µM

Compound: CC1(CO)COS(=O)OC1 (centres undefined)
TGI: > 100 µM

Compound: c1ccncc1
TGI: > 100 µM

Compound: CN(C)CC(=O)Nc1ccc2ncnc(Nc3ccc(Oc4cccc(C(F)(F)F)c4)c(Cl)c3)c2c1
TGI: 9.15 µM

For each entry beneath this line, provide reported TGI.
1. CC(C)(C)C1CCC2c3c([nH]c4ccccc34)C3C(=O)N(c4ccccc4Cl)C(=O)C3C2C1 (centres undefined)
2. Oc1c(Cl)cc(Cl)cc1/C=N/Nc1nnc(N/N=C/c2cc(Cl)cc(Cl)c2O)c2ccccc12
3. C/C=C/C=C\C=C/C(O)C(C)C(CCC(C)C1OC(=O)C=CC1C)OP(=O)(O)O (centres undefined)
4. O=C(NCCCNCCN1C(=O)c2cccc3cc([N+](=O)[O-])cc(c23)C1=O)c1cc(-c2ccccc2)nc2ccccc12

**Result**
> 100 µM
> 100 µM
0.511 µM
2.1 µM

----------
Consider the following compounds; for each one, report its TGI.
- Tested on: CCRF-CEM leukemia
- Assay Explanation: NCI tumour cell line growth inhibition, 48 h
Where a SMILES comes first, the peptide text is derived from it.

Some compounds with recorded TGI:
Compound: CN(CC(=O)O)Cc1c(O)c(Cl)cc(Cl)c1Cl
TGI: 50.4 µM
--
Compound: CCOC(=O)CCC(C(=O)OCC)n1nc2ccc(Nc3c(C)[n+]([O-])c4cc(F)c(OCC)cc4[n+]3[O-])cc2n1 (stereo unspecified)
TGI: > 100 µM
--
Compound: CC(=O)NC(Cc1ccccc1)NC(=O)O (stereo unspecified)
TGI: > 100 µM
--
Compound: COc1ccc(-c2nc3c(nc2-c2ccc(OC)cc2)C(N)=NS(=O)(=O)N3)cc1
TGI: > 100 µM

For each entry beneath this line, provide reported TGI.
1. O=C(c1ccc(C(F)(F)F)c(Cl)c1)N(Cc1ccc(Cl)cc1)c1ccc(-c2cc(C(F)(F)F)[nH]n2)c(O)c1
2. O=C(NC(Cc1ccc(Br)cc1)C(=O)O)c1ccc(I)cc1 (stereo unspecified)

**Result**
1: 5.33 µM; 2: > 100 µM

For each entry beneath this line, provide reported TGI.
1. COc1ccccc1CC(C)N (stereo unspecified)
2. c1cc2nnsc2s1
3. CC1(C)N=C(N)N=C(N)N1c1ccc(OCCCNC(=O)Nc2cccc(S(=O)(=O)F)c2)c(Cl)c1
4. CC(NCc1c(O)ccc2ccc(=O)oc12)C(=O)O (stereo unspecified)
5. NC(=O)C1CCCN1C(=O)C(N)Cc1ccccc1 (stereo not drawn) (H-Phe-Pro-NH2; configuration not given here)

**Result**
1. > 100 µM
2. > 100 µM
3. > 100 µM
4. > 100 µM
5. > 100 µM

For each entry beneath this line, provide reported TGI.
1. NS(=O)(=O)c1ccc(Nc2c3ccccc3nc3c(C(=O)N4CCN(CCO)CC4)cccc23)cc1
2. COC(=O)c1ncc2c(=O)[nH]c3ccccc3c2c1C(=O)OC
3. c1ccncc1
4. CC(C)(C)c1cc(/C=N/NC(=O)c2ccccc2NC(=O)c2cccs2)c(O)c(C(C)(C)C)c1
5. COC(=O)c1cc(=O)n(-c2ccc3nn(C)nc3c2)cc1C(=O)OC

**Result**
1. > 100 µM
2. > 100 µM
3. > 100 µM
4. 11.7 µM
5. > 100 µM
